Recorded CLint for the following molecules
# Test system: Liver
# METHOD NOTES: Intrinsic clearance in human liver microsomes at 2.5 uM assessed per gram of liver
# Format: ADME, microsome
Enter your answer as a number in mL/min/g; do not include the unit.

COc1ccc(S(=O)(=O)c2cnc3cc(F)ccc3c2-c2ccc(Cl)cc2)cc1 | 1.28
N#Cc1cccc(S(=O)(=O)c2cnc3cc(F)ccc3c2-c2ccc(Cl)cc2)c1 | 0.31
O=S(=O)(c1ccc(F)c(Cl)c1)c1cnc2cc(F)ccc2c1-c1ccc(F)cc1 | 0.69
O=S(=O)(c1cc(Cl)cc(Cl)c1)c1cnc2cc(F)ccc2c1-c1ccccc1F | 0.93
O=S(=O)(c1ccc(F)cc1)c1cnc2c(F)cccc2c1-c1ccc(Cl)cc1 | 0.28
COc1ccc(-c2c(S(=O)(=O)c3cccc(C#N)c3)cnc3cc(F)ccc23)cc1 | 0.92

Exercise: Return reported CLint; argument: `COc1ccc(-c2c(S(=O)(=O)c3ccc(OC)cc3)cnc3cc(F)ccc23)cc1`
Solution: 1.18

Exercise: Return reported CLint; argument: `COc1cccc(-c2c(S(=O)(=O)c3ccc(F)c(F)c3)cnc3cc(F)ccc23)c1`
Solution: 1.77

Exercise: Return reported CLint; argument: `N#Cc1cccc(S(=O)(=O)c2cnc3cc(F)ccc3c2-c2cccc(Cl)c2)c1`
Solution: 0.99
